Assay: Cytotoxicity against human HEK293 cells after 24 hrs by ATP-lite 1-step assay
Type: cell-based
Details: read-out: LD50
valueKind: CC50 at 24 h (µM)

1) Cc1cc2nc(NCCCO)n(CC(=O)c3cc(C(C)(C)C)c(O)c(C(C)(C)C)c3)c2cc1C	40

----------
Test: Drug level in mouse blood at 50 mg/kg, ip after 3 hrs by LC/MS analysis
Format: ADME, organism-based
Set-up: dose 50 mg/kg, route intraperitoneal
Conditions: whole blood, read-out: Drug uptake
valueKind: concentration at 3 h (µM)

1. Cc1cc2nc(NCCCO)n(CC(=O)c3cc(C(C)(C)C)c(O)c(C(C)(C)C)c3)c2cc1C	6.96
